Consider the following molecules; for each one, report its pIC50.
TARGET OF ASSAY: tankyrase 2 protein PARP domain, TNKS2P (Homo sapiens (Human))
Sequence (Q9H2K2 959-1164): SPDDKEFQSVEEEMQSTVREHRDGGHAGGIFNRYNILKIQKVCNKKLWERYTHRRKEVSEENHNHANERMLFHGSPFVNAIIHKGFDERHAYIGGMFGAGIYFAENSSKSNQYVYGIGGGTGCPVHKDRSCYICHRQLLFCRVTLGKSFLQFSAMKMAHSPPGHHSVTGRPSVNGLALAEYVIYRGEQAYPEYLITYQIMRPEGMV
Answers are plain numbers, as −log10 of the molar value.

Here's what some known entries look like.
Sure, the documented pIC50 for "O=C(CN1CCC(C(=O)c2ccc(OCCC3CC3)cc2)CC1)NCc1nc2c(c(=O)[nH]1)COCC2" is 7.92

Sure, the documented pIC50 for "COc1ccc(C(=O)C2CCN(CC(=O)NCc3cc4c(c(=O)o3)COCC4)CC2)cc1" is 6.88

Sure, the documented pIC50 for "O=C(c1ccc(F)cc1)C1CCN(CC(=O)N(Cc2nc3c(c(=O)[nH]2)COCC3)Cc2nc3ccccc3s2)CC1" is 7.74

Kindly review the next molecule as well.
Sure, the documented pIC50 for "O=C(c1ccc(F)cc1)C1CCN(CC(=O)N(Cc2cccnc2)Cc2nc3c(c(=O)[nH]2)COCC3)CC1" is 7.38

###

Consider the following compounds; for each one, report its IC50.
TARGET OF ASSAY: tankyrase 2 protein PARP domain, TNKS2P (Homo sapiens (Human))
One number for each entry, in µM.

Here's what some known entries look like.
Sure, the documented IC50 for "COc1cccc(CN(Cc2nc3c(c(=O)[nH]2)COCC3)C(=O)CN2CCC(C(=O)c3ccc(F)cc3)CC2)c1" is 0.023

Sure, the documented IC50 for CC(c1cccs1)N(Cc1nc2c(c(=O)[nH]1)COCC2)C(=O)CN1CCC(C(=O)c2ccc(F)cc2)CC1 (stereo not drawn) is 0.0165

Sure, the documented IC50 for "O=C(CN1CCC(c2noc3cc(F)ccc23)CC1)NCc1nc2c(c(=O)[nH]1)COCC2" is 0.043

Sure, the documented IC50 for "O=C(CN1CCC(n2cc(-c3ccccc3)cn2)CC1)NCc1nc2c(c(=O)[nH]1)COCC2" is 0.188

Sure, the documented IC50 for "CC#CCOc1ccc(C(=O)C2CCN(CC(=O)N(Cc3nc4c(c(=O)[nH]3)COCC4)CC3CC3)CC2)cc1" is 0.015

Sure, the documented IC50 for "O=C(c1ccc(OC(F)(F)F)cc1)C1CCN(CC(=O)N(Cc2nc3c(c(=O)[nH]2)COCC3)CC(F)F)CC1" is 0.015

Provide reported IC50 for each item, in the same order as listed.
1. C#CCN(Cc1nc2c(c(=O)[nH]1)COCC2)C(=O)CN1CCC(C(=O)c2ccc(F)cc2)CC1
2. O=C(c1ccc(F)cc1)C1CCN(CC(=O)N(Cc2nc3c(c(=O)[nH]2)COCC3)C[C@H]2CCCO2)CC1
3. C[C@H](c1ccc(F)cc1)N(Cc1nc2c(c(=O)[nH]1)COCC2)C(=O)CN1CCC(C(=O)c2ccc(F)cc2)CC1
4. C[C@H](C1CC1)N(Cc1nc2c(c(=O)[nH]1)COCC2)C(=O)CN1CCC(C(=O)c2ccc(F)cc2)CC1
5. COc1ccccc1C(=O)C1CCN(CC(=O)N(Cc2nc3c(c(=O)[nH]2)COCC3)CC(F)F)CC1
6. CC(C)(C)CN(Cc1nc2c(c(=O)[nH]1)COCC2)C(=O)CN1CCC(C(=O)c2ccc(F)cc2)CC1
7. CC(c1ccc(F)cc1F)N(Cc1nc2c(c(=O)[nH]1)COCC2)C(=O)CN1CCC(C(=O)c2ccc(F)cc2)CC1 (stereo not drawn)
8. O=C(c1ccc(F)cc1)C1CCN(CC(=O)N(Cc2nc3c(c(=O)[nH]2)COCC3)Cc2ccccc2F)CC1

### Response
[0.014, 0.038, 0.025, 0.032, 0.085, 0.02, 0.0395, 0.009]

Sure, the documented IC50 for "O=C(c1ccccn1)C1CCN(CC(=O)N(Cc2nc3c(c(=O)[nH]2)COCC3)CC2CC2)CC1" is 0.032
